Recorded Tmax values for a group of compounds are listed next.
EXPERIMENT NOTES: clinical
REPORTED CONDITIONS: male, human, plasma, oral
Entry rule: numbers only, all in h.

{"COMPOUND": "NC(N)=Nc1nc(CSCCC(N)=NS(N)(=O)=O)cs1 [famotidine]", "NUMERIC VALUE": 2.17}

[ask] // returns reported Tmax for input CC(C)Cc1ccc(C(C)C(=O)O)cc1 (centres unmarked) [ibuprofen, 2-(p-isobutylphenyl) propionic acid]
[reply] 2.25

====

EXPERIMENT NOTES: clinical
REPORTED CONDITIONS: male, human, plasma, oral
ATTRIBUTE MEASURED: half-life (h)
Entry rule: numbers only, all in h.

[ask] // returns reported half-life for input NC(N)=Nc1nc(CSCCC(N)=NS(N)(=O)=O)cs1 [famotidine]
[reply] 3.49
